Source of measurements: patent US12421216B2

ASSAY_OVERVIEW: Thermodynamic solubility of voruciclib HCl by the shake-flask method (HPLC)
Format: physicochemical
CONDITION_LABEL: dimethyl sulfoxide, organic solvent or mixture, thermodynamic from solid, Dimethyl sulfoxide; RT; amorphous API; no suspension obtained, concentration of the solution after first aliquot; read-out: Solubility
Counter-ions that a name gives are not always drawn.
VALUE_KIND: solubility

Data request: What value of solubility has been reported for the following compound? CN1CC[C@@H](c2c(O)cc(O)c3c(=O)cc(-c4ccc(C(F)(F)F)cc4Cl)oc23)[C@@H]1CO [voruciclib HCl]
Data returned: > 400 mg/mL

----------
ASSAY_OVERVIEW: Quantitative solubility determination of voruciclib malonate after the thermocycling experiments (UPLC)
Type: physicochemical
CONDITION_LABEL: 1,2-dimethoxyethane, organic solvent or mixture, thermodynamic from solid, 1,2-Dimethoxyethane, read-out: Solubility
VALUE_KIND: solubility (µg/mL)
Give just the number in µg/mL; leave the unit off.

Data request: So what does the record say about solubility for CN1CC[C@H](c2c(O)cc(O)c3c(=O)cc(-c4ccc(C(F)(F)F)cc4Cl)oc23)[C@H]1CO (stereo in doubt) [voruciclib malonate] ?
Data returned: 2300

----------
ASSAY_OVERVIEW: Solubility of salts in water and in 0.2 M phosphate buffer pH 6 at 37° C. after 4 hours (HPLC-DAD)
Assay type: physicochemical
CONDITION_LABEL: 0.2M phosphate buffer pH 6, 37° C., 4 hours, about 1 mg salt in 1 mL
VALUE_KIND: solubility (mg/mL)
Give just the number in mg/mL; leave the unit off.

Data request: What does the record list as solubility for CN1CC[C@@H](c2c(O)cc(O)c3c(=O)cc(-c4ccc(C(F)(F)F)cc4Cl)oc23)[C@@H]1CO.O=C(O)CC(=O)O [Mao1] ?
Data returned: 0.02

Data request: Need solubility of CN1CC[C@@H](c2c(O)cc(O)c3c(=O)cc(-c4ccc(C(F)(F)F)cc4Cl)oc23)[C@@H]1CO.CN1CC[C@@H](c2c(O)cc(O)c3c(=O)cc(-c4ccc(C(F)(F)F)cc4Cl)oc23)[C@@H]1CO.O.O=C(O)C(=O)O [Oxa1] , thanks.
Data returned: 0.02

Data request: Param item = CN1CC[C@@H](c2c(O)cc(O)c3c(=O)cc(-c4ccc(C(F)(F)F)cc4Cl)oc23)[C@@H]1CO.CN1CC[C@@H](c2c(O)cc(O)c3c(=O)cc(-c4ccc(C(F)(F)F)cc4Cl)oc23)[C@@H]1CO.O=S(=O)(O)c1cccc2c(S(=O)(=O)O)cccc12 [Nds1a] ; retrieve measured solubility.
Data returned: 0.02

Data request: What solubility value was documented for this molecule, CN1CCC(c2c(O)cc(O)c3c(=O)cc(-c4ccc(C(F)(F)F)cc4Cl)oc23)C1CO.CN1CCC(c2c(O)cc(O)c3c(=O)cc(-c4ccc(C(F)(F)F)cc4Cl)oc23)C1CO.O=C(OC(C(=O)O)C(OC(=O)c1ccccc1)C(=O)O)c1ccccc1 (centres unmarked) [DiTr1] ?
Data returned: 0.03

----------
ASSAY_OVERVIEW: Quantitative solubility determination of voruciclib malonate after the thermocycling experiments (UPLC)
Assay type: physicochemical
CONDITION_LABEL: tetrahydrofuran, organic solvent or mixture, thermodynamic from solid, Tetrahydrofuran, read-out: Solubility
VALUE_KIND: solubility
Provide the measurement as a number trailed by its unit.

Data request: Could you share which solubility value was measured for CN1CC[C@H](c2c(O)cc(O)c3c(=O)cc(-c4ccc(C(F)(F)F)cc4Cl)oc23)[C@H]1CO (stereo in doubt) [voruciclib malonate] ?
Data returned: 14.2 mg/mL
